The reported numbers originate from ChEMBL document CHEMBL5154828.

Entries and their measured pIC50 follow.
- tested_target: Estrogen receptor (Homo sapiens, UniProt P03372, Y537S)
- Sequence (P03372 whole entry Y537S): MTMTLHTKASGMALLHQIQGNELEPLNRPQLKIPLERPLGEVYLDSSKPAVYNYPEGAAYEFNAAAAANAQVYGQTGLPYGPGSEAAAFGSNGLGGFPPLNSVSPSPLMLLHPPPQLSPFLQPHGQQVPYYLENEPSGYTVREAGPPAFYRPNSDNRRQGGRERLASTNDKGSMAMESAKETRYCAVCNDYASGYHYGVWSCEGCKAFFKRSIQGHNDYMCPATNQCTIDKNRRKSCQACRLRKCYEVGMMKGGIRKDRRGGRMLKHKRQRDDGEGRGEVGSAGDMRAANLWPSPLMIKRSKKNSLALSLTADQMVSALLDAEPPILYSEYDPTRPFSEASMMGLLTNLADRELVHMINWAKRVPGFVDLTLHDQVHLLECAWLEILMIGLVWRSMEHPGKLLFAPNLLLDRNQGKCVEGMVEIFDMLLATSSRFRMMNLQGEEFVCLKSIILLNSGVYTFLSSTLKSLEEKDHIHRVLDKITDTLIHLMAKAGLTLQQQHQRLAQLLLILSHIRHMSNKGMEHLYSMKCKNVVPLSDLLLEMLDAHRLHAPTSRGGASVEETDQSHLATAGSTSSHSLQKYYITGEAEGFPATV
- test_summary: Antagonist activity at ERalpha Y537S mutant degradation in human SK-BR-3 cells incubated for 24 hrs in presence of beta-estradiol by luciferase gene assay
pIC50: −log10 of the molar value.
measurement_label: pIC50

>>> recorded_result("CC(F)(F)c1cc(Cl)ccc1-c1sc2c(ccc3[nH]ncc32)c1Oc1ccc(OC2CN(CCCF)C2)cc1")
7.99
>>> recorded_result("CC(F)(F)c1cc(Cl)ccc1-c1sc2c(ccc3[nH]ncc32)c1Oc1ccc(NC2CN(CCCF)C2)cc1")
7.88

* * *

- test_summary: Antiproliferative activity against human MCF-7/TAMR-1 cells assessed as inhibition of cell growth measured after 8 days by cell titre glo luminescence assay
- test_context: MCF-7/TAMR-1, 192 h
measurement_label: IC50 (nM)

>>> recorded_result("CC(F)(F)c1cc(Cl)ccc1-c1sc2c(ccc3[nH]ncc32)c1Oc1ccc(OC2CN(CCCF)C2)cc1")
3.2
